Test: logP by HPLC on reversed-phase column (EEC Directive 79/831 Annex V.A8)
Type: physicochemical
Conditions: HPLC, reversed-phase column (C 18), 40° C., 0.1% aqueous formic acid and acetonitrile, linear gradient 10% to 90% acetonitrile
Reported Metric: logP
Write the number on its own, no unit after it.

Endpoint output: logP of `Cn1nc(C(F)F)c(C(=O)N(Cc2cc(-c3cc(F)c(F)c(F)c3)no2)C2CC2)c1Cl` . Value?
3.64

Check `Cc1nc(-c2ccc(Cl)cc2)sc1CN(C(=O)c1c(C(F)F)nn(C)c1F)C1CC1` too.
3.85

Check `CC(C)c1nn(-c2ccccc2)c(Cl)c1CN(C(=O)c1c(C(F)F)nn(C)c1F)C1CC1` too.
3.94

Check `Cn1nc(C(F)F)c(C(=O)N(Cc2c(C(F)(F)F)nn(C)c2OC(F)F)C2CC2)c1F` too.
2.76
